Measured kon, listed per entry for reference.
# Tgt: T1, short isoform of VEGF (8-109) (UniProt P15692 214-315)
# T1 construct: range 8-109; Immobilized by amine coupling for SPR; in solution for the fluorescence assay; also called vascular endothelial growth factor
# T1 sequence (looked up): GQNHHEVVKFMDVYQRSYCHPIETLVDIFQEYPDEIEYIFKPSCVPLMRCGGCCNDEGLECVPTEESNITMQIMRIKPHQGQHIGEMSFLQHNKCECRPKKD
# Test description: fluorescence-based association assay in solution, 25 mM Tris pH 7.2, 37 C
Readout kind: kon (M⁻¹ s⁻¹)

* Fab Y0101 variant, light chain Y32R (Fab, V domains shown, Fab of Y0101 with one light chain substitution) VH: EVQLVESGGGLVQPGGSLRLSCAASGYTFTNYGMNWVRQAPGKGLEWVGWINTYTGEPTYAADFKRRFTFSLDTSKSTAYLQMNSLRAEDTAVYYCAKYPHYYGSSHWYFDVWGQGTLVTVSS VL: DIQLTQSPSSLSASVGDRVTITCSASQDISNRLNWYQQKPGKAPKVLIYFTSSLHSGVPSRFSGSGSGTDFTLTISSLQPEDFATYYCQQYSTVPWTFGQGTKVEIKR | 710000
* Fab Y0101 variant, heavy chain T28K (Fab, name in Kabat numbering, V domains shown, Fab of Y0101 with one heavy chain substitution) VH: EVQLVESGGGLVQPGGSLRLSCAASGYKFTNYGMNWVRQAPGKGLEWVGWINTYTGEPTYAADFKRRFTFSLDTSKSTAYLQMNSLRAEDTAVYYCAKYPHYYGSSHWYFDVWGQGTLVTVSS VL: DIQLTQSPSSLSASVGDRVTITCSASQDISNYLNWYQQKPGKAPKVLIYFTSSLHSGVPSRFSGSGSGTDFTLTISSLQPEDFATYYCQQYSTVPWTFGQGTKVEIKR | 360000
* Fab Y0101 variant, heavy chain E56K (Fab, name in Kabat numbering, V domains shown, Fab of Y0101 with one heavy chain substitution) VH: EVQLVESGGGLVQPGGSLRLSCAASGYTFTNYGMNWVRQAPGKGLEWVGWINTYTGKPTYAADFKRRFTFSLDTSKSTAYLQMNSLRAEDTAVYYCAKYPHYYGSSHWYFDVWGQGTLVTVSS VL: DIQLTQSPSSLSASVGDRVTITCSASQDISNYLNWYQQKPGKAPKVLIYFTSSLHSGVPSRFSGSGSGTDFTLTISSLQPEDFATYYCQQYSTVPWTFGQGTKVEIKR | 480000
* Fab Y0101 variant, heavy chain Y99K (Fab, name in Kabat numbering, V domains shown, Fab of Y0101 with one heavy chain substitution) VH: EVQLVESGGGLVQPGGSLRLSCAASGYTFTNYGMNWVRQAPGKGLEWVGWINTYTGEPTYAADFKRRFTFSLDTSKSTAYLQMNSLRAEDTAVYYCAKYPHYKGSSHWYFDVWGQGTLVTVSS VL: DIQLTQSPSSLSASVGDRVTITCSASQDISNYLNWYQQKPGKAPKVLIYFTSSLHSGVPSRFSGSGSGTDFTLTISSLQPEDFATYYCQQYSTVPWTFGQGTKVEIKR | 380000

Where do these numbers come from? They come from patent US20030224397A1.
